FYI, the data here is from patent US9108920B2.

Tested on: Male beagle dogs
Assay: canine telemetry protocol, blood pressure reduction efficacy
Assay type: in vivo
Conditions: pulse pressure, change from baseline; 3 mg/kg oral gavage; 12-18 h
ASSAY_ENDPOINT: ΔPP (mm Hg) 12-18 h

| MOLECULE | ΔPP (mm Hg) 12-18 h |
| --- | --- |
| CCN(/[N+]([O-])=N/O[C@@H]1CCN(C(=O)NC(C)(C)C)C1)C(C)(C)C [Example 59] | −15 mm Hg |

Your task in this section: give ΔPP (mm Hg) 12-18 h for each listed record.
1. CCN(/[N+]([O-])=N/O[C@@H]1CCN(CC(F)(F)F)C1)C(C)(C)C [Example 32]
2. CCN(/[N+]([O-])=N/OC1CCN(C(=O)OC(C)(C)C)CC1)C(C)(C)C [Example 6]
3. CN(/[N+]([O-])=N/O[C@@H]1CCN(Cc2ccccc2)C1)C(C)(C)C [Example 28]
4. CCN(/[N+]([O-])=N/OC1CCN(c2ccc(C#N)cn2)CC1)C(C)(C)C [Example 48]
5. CN(/[N+]([O-])=N/O[C@@H]1CCN(C(=O)OC(C)(C)C)C1)C(C)(C)C [Example 1]

1: −10 mm Hg; 2: −15 mm Hg; 3: −5 mm Hg; 4: −15 mm Hg; 5: −15 mm Hg

###

Test system: Male beagle dogs
Experiment: canine telemetry protocol, blood pressure reduction efficacy
Type: in vivo
Settings: pulse pressure, change from baseline; 3 mg/kg oral gavage; 6-12 h
For each entry below, report its ΔPP (mm Hg) 6-12 h value.
Numbers only, in mm Hg.

Answered cases to consult:
| MOLECULE | ΔPP (mm Hg) 6-12 h |
| --- | --- |
| CCN(/[N+]([O-])=N/OC1CCN(c2ccc(C#N)cn2)CC1)C(C)(C)C [Example 48] | −16 |
| CN(/[N+]([O-])=N/O[C@@H]1CCN(Cc2ccccc2)C1)C(C)(C)C [Example 28] | −10 |
| CN(/[N+]([O-])=N/O[C@@H]1CCN(C(=O)OC(C)(C)C)C1)C(C)(C)C [Example 1] | −17 |
| CCN(/[N+]([O-])=N/OC1CCN(C(=O)OC(C)(C)C)CC1)C(C)(C)C [Example 6] | −17 |
| CCN(/[N+]([O-])=N/O[C@@H]1CCN(C(=O)NC(C)(C)C)C1)C(C)(C)C [Example 59] | −16 |

// next item, ΔPP (mm Hg) 6-12 h requested
Query CCN(/[N+]([O-])=N/O[C@@H]1CCN(CC(F)(F)F)C1)C(C)(C)C [Example 32] yields ΔPP (mm Hg) 6-12 h of −15
